From: patent US20060135522A1

# Target system: mu opioid receptor (Rattus norvegicus)
# Construct: from tissue; host or cells: forebrain of male Wistar rats (particulate membrane preparation)
# Assay comment: Rat Brain Mu Opioid Receptor Binding Assay
// returns FALSE unless Ki is strictly below 4 µM, in which case TRUE

# input Problem: For the compound CCN(CC)C(=O)c1ccc2c(c1)Oc1ccccc1C2C1CCN(CCc2ccccc2)CC1 (centres unmarked) [12a] , is Ki under 4 µM?
# output TRUE

# input A record lists CCN(CC)C(=O)c1ccc2c(c1)Oc1ccccc1C2C1CCN(Cc2ncc[nH]2)CC1 (centres unmarked) [13a] . Is its Ki below 4 µM?
# output TRUE

# input Consider c1ccc(CN2CCC(C3c4ccccc4Oc4cc(-c5ccncc5)ccc43)CC2)nc1 (centres unmarked) . Does its Ki lie strictly below 4 µM?
# output TRUE

# input Is it true that Ki reported for CCN(CC)C(=O)c1ccc2c(c1)Oc1ccccc1C2C1CCN(Cc2ccccc2)CC1 (centres unmarked) [10a] is less than 4 µM?
# output FALSE

# input Just wondering, is Ki of O=c1[nH]c(-c2ccc3c(c2)Oc2ccccc2C3C2CCNCC2)no1 (centres unmarked) below 4 µM?
# output FALSE

# input Problem: For the compound CCN(CC)C(=O)c1ccc2c(c1)Oc1c(O)cccc1C2C1CCNCC1 (centres unmarked) , is Ki under 4 µM?
# output FALSE

# input Find out if reported Ki for CCN(CC)C(=O)c1ccc2c(c1)Oc1ccccc1C2C1CCN(C)CC1 (centres unmarked) [16a] is less than 4 µM
# output FALSE

# input Below 4 µM on Ki? Entry CCN(CC)C(=O)c1ccc2c(c1)Oc1ccccc1C2C1CCN(Cc2ccoc2)CC1 (centres unmarked)
# output FALSE

# input # strict comparison: is reported Ki < 4 µM? input = c1ccc2c(c1)Oc1cc(-c3ccncc3)ccc1C2C1CCN(Cc2ccoc2)CC1 (centres unmarked)
# output FALSE

# input Answer whether the compound CCN(CC)C(=O)c1ccc2c(c1)Oc1ccccc1C2C1CCN(Cc2ccccn2)CC1 (centres unmarked) [11a] has Ki strictly less than 4 µM
# output FALSE

# input Please indicate whether the reported Ki of c1ccc(CN2CCC(C3c4ccccc4Oc4cc(-c5cccnc5)ccc43)CC2)cc1 (centres unmarked) is strictly below 4 µM.
# output TRUE

# input Is Ki of Oc1cccc2c1Oc1cc(-c3cccnc3)ccc1C2C1CCNCC1 (centres unmarked) strictly below 4 µM?
# output FALSE

# input For this compound, is Ki lower than 4 µM? CCN(CC)C(=N)c1ccc2c(c1)Oc1ccccc1C2C1CCNCC1 (centres unmarked)
# output FALSE

# input Consider CCN(CC)C(=O)c1ccc2c(c1)Oc1ccccc1C2C1CCN(Cc2cccs2)CC1 (centres unmarked) [15a] . Does its Ki lie strictly below 4 µM?
# output FALSE

###

# Target system: mu opioid receptor (Rattus norvegicus, UniProt P33535)
# Construct: from tissue; host or cells: forebrain of male Wistar rats (particulate membrane preparation)
# Sequence (P33535 whole entry): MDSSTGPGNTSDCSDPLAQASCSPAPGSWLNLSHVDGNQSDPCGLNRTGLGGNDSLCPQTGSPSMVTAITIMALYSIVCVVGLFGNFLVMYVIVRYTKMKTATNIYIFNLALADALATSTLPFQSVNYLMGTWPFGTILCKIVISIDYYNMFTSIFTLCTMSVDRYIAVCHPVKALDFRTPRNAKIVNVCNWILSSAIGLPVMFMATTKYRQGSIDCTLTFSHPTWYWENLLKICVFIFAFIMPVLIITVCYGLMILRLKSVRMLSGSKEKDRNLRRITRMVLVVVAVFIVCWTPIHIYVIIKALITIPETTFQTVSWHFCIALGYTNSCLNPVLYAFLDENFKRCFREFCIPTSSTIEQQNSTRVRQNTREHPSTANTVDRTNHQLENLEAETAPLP
# Assay comment: Rat Brain Mu Opioid Receptor Binding Assay
# Condition info: rat forebrain membranes; [3H]DAMGO, 25° C., 2.5 h; read-out: mu (Ki)
Experimental endpoint: pKi
On this scale, pKi is minus log10 of a concentration expressed in M (mol/L).

# input Name the reported pKi value associated with the compound O=C(c1ccc2c(c1)Oc1ccccc1C2C1CCN(CCc2ccccc2)CC1)N1CC[C@H](O)C1 (stereo partly shown) [6n]
# output 5.47

# input Bench note: what pKi did CCNC(=O)c1ccc2c(c1)Oc1c(O)cccc1C2C1CCNCC1 (stereo not shown) [5d] show?
# output 6.06

# input Looking for the measured pKi of COc1cccc2c1Oc1cc(-c3ccccc3NC(C)=O)ccc1C2C1CCNCC1 (stereo not shown) [9b] , can you help?
# output 5.35

# input Requested read-out: pKi. Entry: C=CCN1CCC(C2c3ccccc3Oc3cc(-c4ccccc4NC(C)=O)ccc32)CC1 (stereo not shown) [6g]
# output 5.02
